Just for reference, patent US10227358B2 is where these values come from.

# Assayed System: Mcl-1 protein (UniProtKB Q07820) (Homo sapiens, UniProt Q07820)
# Sequence (Q07820 whole entry): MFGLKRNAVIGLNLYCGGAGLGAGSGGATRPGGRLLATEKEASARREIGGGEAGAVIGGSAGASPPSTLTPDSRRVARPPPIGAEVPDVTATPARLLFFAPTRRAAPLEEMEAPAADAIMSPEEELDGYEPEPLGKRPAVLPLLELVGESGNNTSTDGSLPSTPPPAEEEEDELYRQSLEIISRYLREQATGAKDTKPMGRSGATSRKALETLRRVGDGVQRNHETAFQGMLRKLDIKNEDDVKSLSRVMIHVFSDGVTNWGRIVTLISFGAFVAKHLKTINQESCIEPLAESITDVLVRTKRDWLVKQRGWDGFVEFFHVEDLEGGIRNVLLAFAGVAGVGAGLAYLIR
# Assay Info: Inhibition of Mcl-1 by the fluorescence polarisation technique
# Type: binding
# Assay Context: fluorescein labelled ligand 1 nM, Mcl-1 protein 5 nM, ~2 hours at room temperature; read-out: IC50 (μM) Mcl-1 FP
Overview of reported IC50 across a group of molecules:
The reply should be a number in µM, with the unit left off.

Worked cases, answers included:
Input line: Report IC50 for COc1ccccc1-c1nccc(COc2ccccc2CC(Oc2ncnc3sc(-c4ccc(F)cc4)c(-c4ccc(OCCN5CCN(C)CC5)c(Cl)c4C)c23)C(=O)OC(C)OC(=O)N(C)C)n1 (centres unmarked) please.
Output line: 0.438

Input line: Would you mind telling me what IC50 value was observed for CCOC(=O)OC(C)OC(=O)C(Cc1ccccc1OCc1ccnc(-c2ccccc2OC)n1)Oc1ncnc2sc(-c3ccc(F)cc3)c(-c3ccc(OCCN4CCN(C)CC4)c(Cl)c3C)c12 (centres unmarked) ?
Output line: 0.361

Input line: Returns the measured IC50 for the input molecule. Input: COc1ccccc1-c1nccc(COc2ccccc2CC(Oc2ncnc3sc(-c4ccc(F)cc4)c(-c4ccc(OCCN5CCN(C)CC5)c(Cl)c4C)c23)C(=O)OC(C)OC(=O)N2CCOCC2)n1 (centres unmarked)
Output line: 0.52

Input line: Field request: IC50 | item: COC(=O)OC(C)OC(=O)C(Cc1ccccc1OCc1ccnc(-c2ccccc2OC)n1)Oc1ncnc2sc(-c3ccc(F)cc3)c(-c3ccc(OCCN4CCN(C)CC4)c(Cl)c3C)c12 (centres unmarked)
Output line: 0.037

Input line: Please give the measured IC50 for this molecule: COCCNC(=O)OC(C)OC(=O)C(Cc1ccccc1OCc1ccnc(-c2ccccc2OC)n1)Oc1ncnc2sc(-c3ccc(F)cc3)c(-c3ccc(OCCN4CCN(C)CC4)c(Cl)c3C)c12 (centres unmarked)
Output line: 0.147

Input line: Give the measured IC50 of CCN(CC)C(=O)OC(C)OC(=O)C(Cc1ccccc1OCc1ccnc(-c2ccccc2OC)n1)Oc1ncnc2sc(-c3ccc(F)cc3)c(-c3ccc(OCCN4CCN(C)CC4)c(Cl)c3C)c12 (centres unmarked) .
Output line: 1.41

More entries:
Input line: Can you share its IC50? I mean this molecule: COc1ccccc1-c1nccc(COc2ccccc2CC(Oc2ncnc3sc(-c4ccc(F)cc4)c(-c4ccc(OCCN5CCN(C)CC5)c(Cl)c4C)c23)C(=O)OCOP(=O)(O)O)n1 (centres unmarked)
Output line: 0.0032

Input line: # query: IC50 of entry COc1ccccc1-c1nccc(COc2ccccc2C[C@@H](Oc2ncnc3sc(-c4ccc(F)cc4)c(-c4c(C)c(Cl)c(OCCN5CCN(C)CC5)c(Cl)c4C)c23)C(=O)OC(C)OC(=O)N(C)C)n1 (some centres unmarked)
Output line: 1.54

###

# Assayed System: Mcl-1 protein (UniProtKB Q07820) (Homo sapiens, UniProt Q07820)
# Assay Info: Inhibition of Mcl-1 by the fluorescence polarisation technique
# Type: binding
# Assay Context: fluorescein labelled ligand 1 nM, Mcl-1 protein 5 nM, ~2 hours at room temperature; read-out: IC50 (μM) Mcl-1 FP
Lab note: compare IC50 with 0.5 µM, writing class 1 if less and class 0 if equal or more.

The following compounds have reported results that may help.
Input line: Given COCCN(CCOC)C(=O)OC(C)OC(=O)C(Cc1ccccc1OCc1ccnc(-c2ccccc2OC)n1)Oc1ncnc2sc(-c3ccc(F)cc3)c(-c3ccc(OCCN4CCN(C)CC4)c(Cl)c3C)c12 (centres unmarked) [Example 11] , is recorded IC50 strictly lower than 0.5 µM?
Output line: class 0

Input line: Please check: IC50 for COc1ccccc1-c1nccc(COc2ccccc2CC(Oc2ncnc3sc(-c4ccc(F)cc4)c(-c4ccc(OCCN5CCN(C)CC5)c(Cl)c4C)c23)C(=O)OC(C)OC(=O)OC(C)(C)C)n1 (centres unmarked) [Example 4] , strictly under 0.5 µM or not?
Output line: class 0

Input line: Hello, I'm reviewing records and need to know if IC50 of CCOC(=O)OC(C)OC(=O)[C@@H](Cc1ccccc1OCc1ccnc(-c2ccccc2OC)n1)Oc1ncnc2sc(-c3ccc(F)cc3)c(-c3c(C)c(Cl)c(OCCN4CCN(C)CC4)c(Cl)c3C)c12 (some centres unmarked) [Example 15] is below 0.5 µM. Could you check?
Output line: class 1

Kindly consider the entry below.
Input line: IC50 strictly < 0.5 µM for this compound? COc1ccccc1-c1nccc(COc2ccccc2CC(Oc2ncnc3sc(-c4ccc(F)cc4)c(-c4ccc(OCCN5CCN(C)CC5)c(Cl)c4C)c23)C(=O)OC(C)OC(=O)OC(C)C)n1 (centres unmarked) [Example 3]
Output line: class 1

###

# Test system: H929 multiple myeloma tumour line
# Assay Info: In vitro cytotoxicity (MTT, Microculture Tetrazolium Assay)
# Format: cell-based
# Assay Context: Homo sapiens, NCI-H929; H929 cells, 48 hours exposure, cell viability
Measured Attribute: IC50
Could you write the number and then its unit?

Input line: Which measured IC50 value corresponds to COc1ccccc1-c1nccc(COc2ccccc2C[C@@H](Oc2ncnc3sc(-c4ccc(F)cc4)c(-c4c(C)c(Cl)c(OCCN5CCN(C)CC5)c(Cl)c4C)c23)C(=O)O)n1 ?
Output line: 0.025 µM

Input line: Which measured IC50 value corresponds to COc1ccccc1-c1nccc(COc2ccccc2C[C@@H](Oc2ncnc3sc(-c4ccc(F)cc4)c(-c4c(C)c(Cl)c(OCCN5CCN(C)CC5)c(Cl)c4C)c23)C(=O)OC(C)OC(=O)N(C)C)n1 (stereo partly drawn) ?
Output line: 0.702 µM

Input line: Endpoint output: IC50 of CCOC(=O)OC(C)OC(=O)[C@@H](Cc1ccccc1OCc1ccnc(-c2ccccc2OC)n1)Oc1ncnc2sc(-c3ccc(F)cc3)c(-c3c(C)c(Cl)c(OCCN4CCN(C)CC4)c(Cl)c3C)c12 (stereo partly drawn) . Value?
Output line: 0.068 µM

###

// reported IC50 for each item listed
# Assayed System: Mcl-1 protein (UniProtKB Q07820) (Homo sapiens, UniProt Q07820)
# Assay Info: Inhibition of Mcl-1 by the fluorescence polarisation technique
# Format: binding
# Assay Context: fluorescein labelled ligand 1 nM, Mcl-1 protein 5 nM, ~2 hours at room temperature; read-out: IC50 (μM) Mcl-1 FP
Provide only the numeric value, understood in µM.

Input line: # lookup: IC50 of COc1ccccc1-c1nccc(COc2ccccc2C[C@@H](Oc2ncnc3sc(-c4ccc(F)cc4)c(-c4c(C)c(Cl)c(OCCN5CCN(C)CC5)c(Cl)c4C)c23)C(=O)O)n1 [Preparation 13]
Output line: 0.00181

Input line: IC50 lookup needed for COC(=O)CN(C)C(=O)OC(C)OC(=O)C(Cc1ccccc1OCc1ccnc(-c2ccccc2OC)n1)Oc1ncnc2sc(-c3ccc(F)cc3)c(-c3ccc(OCCN4CCN(C)CC4)c(Cl)c3C)c12 (stereo not drawn) [Example 12] , thanks.
Output line: 0.318

Input line: Requested read-out: IC50. Entry: COc1ccccc1-c1nccc(COc2ccccc2CC(Oc2ncnc3sc(-c4ccc(F)cc4)c(-c4ccc(OCCN5CCN(C)CC5)c(Cl)c4C)c23)C(=O)OC(C)OC(=O)OC2CCCC2)n1 (stereo not drawn) [Example 5]
Output line: 0.37
